Would you mind telling me the reported MIC of each entry?
Test system: Salmonella enterica
Assay: Antibacterial activity against Salmonella enterica assessed as inhibition of bacterial growth by two-fold serial broth dilution method
Assay type: functional
Just the number please, in µg/mL, no unit attached.

Look at this compound and give its reported MIC. O=C1c2cccc3cccc(c23)C(=O)N1Nc1nc(N2CCOCC2)nc(N2CCN(Cc3ccccc3)CC2)n1
200

Note, next up: Cc1ccc(CNc2nc(NN3C(=O)c4cccc5cccc(c45)C3=O)nc(N3CCOCC3)n2)cc1
200

Note, next up: COc1ccc(CNc2nc(NN3C(=O)c4cccc5cccc(c45)C3=O)nc(N3CCOCC3)n2)cc1
100

* * *

Would you mind telling me the reported MIC of each entry?
Tested on: Salmonella enterica
Assay: Antibacterial activity against Salmonella enterica assessed as inhibition of bacterial growth by two-fold serial broth dilution method
Assay type: functional

Look at this compound and give its reported MIC. N#Cc1ccc(CNc2nc(NN3C(=O)c4cccc5cccc(c45)C3=O)nc(N3CCOCC3)n2)cc1
400 µg/mL

Note, next up: O=C1c2cccc3cccc(c23)C(=O)N1Nc1nc(NCc2ccc(F)cc2)nc(N2CCOCC2)n1
200 µg/mL

Note, next up: O=C1c2cccc3cccc(c23)C(=O)N1Nc1nc(N2CCOCC2)nc(N2CCOCC2)n1
100 µg/mL

Note, next up: O=C1c2cccc3cccc(c23)C(=O)N1Nc1nc(N2CCCCC2)nc(N2CCOCC2)n1
200 µg/mL

Note, next up: O=C1c2cccc3cccc(c23)C(=O)N1Nc1nc(Nc2ccc(F)cc2)nc(N2CCOCC2)n1
200 µg/mL

Note, next up: CC1(C)S[C@@H]2[C@H](NC(=O)[C@H](N)c3ccc(O)cc3)C(=O)N2[C@H]1C(=O)O
200 µg/mL

Note, next up: C=CCNc1nc(NN2C(=O)c3cccc4cccc(c34)C2=O)nc(N2CCOCC2)n1
200 µg/mL

Note, next up: CCN1CCN(c2nc(NN3C(=O)c4cccc5cccc(c45)C3=O)nc(N3CCOCC3)n2)CC1
200 µg/mL

Note, next up: CN1CCN(c2nc(NN3C(=O)c4cccc5cccc(c45)C3=O)nc(N3CCOCC3)n2)CC1
200 µg/mL

Note, next up: O=C1c2cccc3cccc(c23)C(=O)N1Nc1nc(NCc2ccccc2)nc(N2CCOCC2)n1
200 µg/mL

Note, next up: O=C1c2cccc3cccc(c23)C(=O)N1Nc1nc(NC2CCCCC2)nc(N2CCOCC2)n1
200 µg/mL

Note, next up: C#CCNc1nc(NN2C(=O)c3cccc4cccc(c34)C2=O)nc(N2CCOCC2)n1
100 µg/mL

Note, next up: CN(C)CCNc1nc(NN2C(=O)c3cccc4cccc(c34)C2=O)nc(N2CCOCC2)n1
100 µg/mL

Note, next up: CCN(CC)CCNc1nc(NN2C(=O)c3cccc4cccc(c34)C2=O)nc(N2CCOCC2)n1
200 µg/mL

Note, next up: CCCCNc1nc(NN2C(=O)c3cccc4cccc(c34)C2=O)nc(N2CCOCC2)n1
100 µg/mL

Note, next up: O=C1c2cccc3cccc(c23)C(=O)N1Nc1nc(NCCN2CCOCC2)nc(N2CCOCC2)n1
200 µg/mL

Note, next up: O=C1c2cccc3cccc(c23)C(=O)N1Nc1nc(N2CCOCC2)nc(N2CCN(c3ccccc3)CC2)n1
200 µg/mL
